Experiment: NCI Yeast Anticancer Drug Screen. Data for the mec2-1 strain (AID 157)
Conditions: S. cerevisiae mec2-1 strain, at 50.0 µM, hits give high values
Experimental: Growth inhibition of yeast strains with defined genetic alterations is measured as a screen for potential anti-cancer activity. Selected strains with alterations in DNA damage repair or cell cycle control were exposed to compounds and growth inhibition was measured relative to vehicle treated controls. The strain used in this assay is mec2-1
About 79,000 compounds went through this panel and 15% of them were active in at least one assay; those are over-represented in the sample as a whole.
RECORDED_ENDPOINT: growth inhibition (%)

>>> value_observed("O=C(Nc1ccccc1)c1cccc(F)c1")
-20.8
>>> value_observed("CC1=C(C(=O)Nc2ccccc2)C(c2ccccc2)C(C(=O)Nc2ccccc2)=C(C)N1")
2.55
>>> value_observed("[N-]=[N+]=CC(=O)C1OC1c1ccc2ccccc2c1 (stereo unspecified)")
21.6
>>> value_observed("COc1cc(C2c3cc4c(cc3C(OC(=O)C[n+]3ccccc3)C3COC(=O)C23)OCO4)cc(OC)c1OC (stereo unspecified)")
-9.15
>>> value_observed("COc1ccc(CCNC(=O)CC2CCN(Cc3ccccc3)CC2)cc1OC")
1.15
>>> value_observed("CCOC(=O)/C(=C\\c1ccccc1)NC(=O)c1ccccc1")
-2.75

###

Measured growth inhibition, listed per entry.
Test: NCI Yeast Anticancer Drug Screen. Data for the bub3 strain (AID 167)
Details: S. cerevisiae bub3 mutant strain, at 50.0 µM, hits give high values
Procedure: Growth inhibition of yeast strains with defined genetic alterations is measured as a screen for potential anti-cancer activity. Selected strains with alterations in DNA damage repair or cell cycle control were exposed to compounds and growth inhibition was measured relative to vehicle treated controls. The strain used in this assay is bub3
This is part of a sample that, as a whole, favours compounds with a hit. Of some 79,000 tested, about 15% had one in any assay.
RECORDED_ENDPOINT: growth inhibition (%)

>>> value_observed("C=C1C(=O)OC2C=C(C)C3C(OC(=O)c4ccccc4)CC(C)(O)C3CC12 (stereo not given)")
-2.75
>>> value_observed("C/C(CC(=O)Nc1ccc(NC(=O)C/C(C)=N\\NC(N)=O)cc1)=N/NC(N)=O")
-14.1
>>> value_observed("CCCCCCCCCCCCCCCCC[CH2][Sn]([Cl])([CH2]CCCCCCCCCCCCCCCCC)[CH2]CCCCCCCCCCCCCCCCC")
-2.1
>>> value_observed("C[N+](C)(C)CCOC(=O)C(c1ccccc1)C1(O)CCCC1 (stereo not given)")
-1.7
>>> value_observed("O=C(c1ccc(Cl)cc1)C1C(c2ccccc2)C1[N+](=O)[O-] (stereo not given)")
16.4
>>> value_observed("C(CCN1CN(CCCCN2CCOCC2)CN(CCCCN2CCOCC2)C1)CN1CCOCC1")
-1.75
>>> value_observed("Cc1ccccc1NC(=O)/C(C#N)=N\\Nc1nc[nH]c1C(N)=O")
-45.9
>>> value_observed("N#CC(=S)Nc1ccc(Cl)c(Cl)c1")
-1.95
>>> value_observed("CCOC(=O)C(C)(C(=O)OCC)C(C)Cc1cccc2ccccc12 (stereo not given)")
-7.15
>>> value_observed("CCCCCC[n+]1ccc(C(=O)c2ccccc2)cc1")
0.45

###

assay: NCI Yeast Anticancer Drug Screen. Data for the sgs1 mgt1 strain (AID 161);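 note: 0% = growth of cultures given vehicle only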; conditions: S. cerevisiae sgs1 mgt1 strain, at 50.0 µM, hits give high values
Compounds without any hit were thinned out: in the full panel of roughly 79,000, 15% have a hit.
RECORDED_ENDPOINT: growth inhibition (%)

>>> value_observed("O=C(c1ccccc1)C1(Cl)CCCCC1")
-10.8
>>> value_observed("COC(=O)C(/C(=N/N)C(=O)Nc1cc(Cl)ccc1Cl)c1nc2ccc([N+](=O)[O-])cc2[nH]c1=O (stereo not given)")
7.3
>>> value_observed("CS(=O)(=O)c1nsc(N)n1")
-5.25
>>> value_observed("Cc1n[n+](Cc2ccccc2)c2sc(N)nn12")
-41.6
>>> value_observed("CC1=CC(=O)c2cccc(NC3=NCCO3)c21")
-2.95
>>> value_observed("Cn1c(N)c(N=O)c(=O)n(C)c1=O")
-1.6
>>> value_observed("Nc1c(Br)c(Br)cc2c1-c1ccc(Br)cc1C2")
-2.65
>>> value_observed("CCCCCCCCCCCCCCCCC(=O)O")
-22.6
>>> value_observed("Clc1ccc2c(c1)N(C1CCCN(Cc3ccccc3)C1)c1ccccc1S2 (stereo not given)")
35.1
>>> value_observed("CC1CCCC2(C)CCC(=O)C=C12 (stereo not given)")
-12.5
>>> value_observed("CC(=O)Nc1ccc(F)c([N+](=O)[O-])c1")
3.35
>>> value_observed("COc1cc(/C=N\\N=C(/C)c2ccc(C)cc2C)cc(OC)c1OC")
24.8
>>> value_observed("COc1ccc(/C=N/Nc2nc3ccccc3c(=O)n2-c2ccccc2)cc1")
-38.6
>>> value_observed("COc1cc2oc3cc(=O)cc4oc(-c5ccccc5)cc(c2c2c1CCC(c1ccccc1)O2)c43 (stereo not given)")
-17.4
>>> value_observed("C/C=C/C(=O)OCCCCCCCCCCCCCCCCCC")
11.7
>>> value_observed("CCc1cccc(CC)c1N(C(C)=O)C(C)=O")
-11.7
>>> value_observed("O=C1c2ccccc2C(=O)N1C1(C(=O)O)CCCC1")
-7.65
>>> value_observed("Cc1ccc2c(c1)C=C/C(=C/c1cc[n+](C)c3ccccc13)N2C")
13.3
>>> value_observed("COC(=O)C1c2ccccc2CC(=O)N1NC(=O)c1ccccc1 (stereo not given)")
-17.1
>>> value_observed("[N-]=[N+]=NCC1OCC(O)C(OCc2ccccc2)C1OCc1ccccc1 (stereo not given)")
-3.75
>>> value_observed("CC1(C)CC(C2=NCCO2)CC(C)(C)N1")
-39.3
>>> value_observed("Cc1ccc(OCC2OC(n3cnc4c(N(C)C)nc(Br)nc43)CC2Oc2ccc(C)cc2)cc1 (stereo not given)")
13.1
>>> value_observed("Cc1c(O)cc(O)c(C)c1C")
-8.6
>>> value_observed("c1ccc2c(c1)ccc1c3ccccc3ncc21")
32.6
>>> value_observed("O=C1NCCCCC1CC/C=C/c1ccccc1 (stereo not given)")
-3.7
